- System: velvetleaf
- procedure text: Test B pre/postemergence velvetleaf
- Type: in vivo, Abutilon theophrasti
- conditions: Rate 1000 g/ha, Preemergence; scale 0 to 10 (0 no effect, 10 complete control)
For each entry below, report its Plant response rating, Velvetleaf value.
Give bare numbers.

Examples from the recorded data:
molecule="CCOC(=O)CC(C(=O)OCC)n1c(=O)on(C(=O)N(c2ccc(Cl)cc2)C(C)C)c1=O (stereo not drawn)" reading=0
molecule="C=CCn1c(=O)on(C(=O)N(c2c(C)cccc2C)C(C)COC)c1=O (stereo not drawn)" reading=0

Give me Plant response rating, Velvetleaf for each of these molecules, listed below.
1. CCOP(=O)(Cn1c(=O)on(C(=O)N(c2ccc(F)cc2F)C(C)C)c1=O)OCC
2. CCOC(=O)C(C)N(C(=O)n1oc(=O)n(C(C)C)c1=O)c1ccc(F)cc1 (stereo not drawn)
3. CCOP(=O)(Cn1c(=O)on(C(=O)N(c2ccc(F)cc2)C(C)C)c1=O)OCC
4. CCN(C(=O)n1oc(=O)n(N(C)c2ccccc2)c1=O)C1CCCCC1

Result:
1. 3
2. 4
3. 4
4. 0
